Quick reference: k el of the listed items.
procedureDetails: Single- and multiple-dose plasma pharmacokinetics of GA and PCA after oral RLQ in healthy subjects
Format: in vivo, human
protocolConditions: both sexes, human, plasma, oral, 8 g, multiple dose RLQ 8 g; read-out: ke (converted)
valueType: k el (s⁻¹)

[[record]]
chemsmiles = "O=C(O)c1ccc(O)c(O)c1"
datavalue = 0.000789

[[record]]
chemsmiles = "O=C(O)c1cc(O)c(O)c(O)c1"
datavalue = 0.00015


* * *

procedureDetails: Single- and multiple-dose plasma pharmacokinetics of GA and PCA after oral RLQ in healthy subjects
Assay type: in vivo, human
protocolConditions: both sexes, human, plasma, oral; single dose RLQ 8 g, median (range); read-out: tmax
valueType: tmax (min)

[[record]]
chemsmiles = "O=C(O)c1cc(O)c(O)c(O)c1"
datavalue = 45

[[record]]
chemsmiles = "O=C(O)c1ccc(O)c(O)c1"
datavalue = 19.8


* * *

procedureDetails: Single- and multiple-dose plasma pharmacokinetics of GA and PCA after oral RLQ in healthy subjects
Format: in vivo, human
protocolConditions: both sexes, human, plasma, oral, 8 g, human plasma, multiple dose RLQ 8 g; read-out: AUC0–t
valueType: AUC(0-t) (ng·h/mL)

[[record]]
chemsmiles = "O=C(O)c1ccc(O)c(O)c1"
valuetype = "AUC(0-t)"
datavalue = 2.81

[[record]]
chemsmiles = "O=C(O)c1cc(O)c(O)c(O)c1"
valuetype = "AUC(0-t)"
datavalue = 205


* * *

procedureDetails: Single- and multiple-dose plasma pharmacokinetics of GA and PCA after oral RLQ in healthy subjects
Assay type: in vivo, human
protocolConditions: both sexes, human, plasma, oral, 8 g, human plasma, single dose RLQ 8 g; read-out: AUC0–t
valueType: AUC(0-t) (ng·h/mL)

[[record]]
compound = "O=C(O)c1cc(O)c(O)c(O)c1 [GA, gallic acid]"
datavalue = 251

[[record]]
compound = "O=C(O)c1ccc(O)c(O)c1 [PCA, protocatechuic acid]"
datavalue = 3.2


* * *

procedureDetails: Urinary excretion of GA and PCA after oral RLQ in healthy subjects
Format: in vivo, human
protocolConditions: human, urine, oral, 8 g, single dose RLQ 8 g, urine within 24 h; read-out: Fu (fraction of administered dose excreted in the urine)
Quick reference: fraction unbound of the listed items.
valueType: fraction unbound

[[record]]
molecule = "O=C(O)c1ccc(O)c(O)c1 [PCA, protocatechuic acid]"
valuetype = "fraction unbound"
datavalue = "~0.042"

[[record]]
molecule = "O=C(O)c1cc(O)c(O)c(O)c1 [GA, gallic acid]"
valuetype = "fraction unbound"
datavalue = "~0.086"


* * *

procedureDetails: Urinary excretion of GA and PCA after oral RLQ in healthy subjects
Type: in vivo, human
protocolConditions: human, urine, oral, 8 g, multiple dose RLQ 8 g, urine within 24 h; read-out: Fu (fraction of administered dose excreted in the urine)
valueType: fraction unbound

[[record]]
chemsmiles = "O=C(O)c1cc(O)c(O)c(O)c1"
valuetype = "fraction unbound"
datavalue = 0.107


* * *

Quick reference: Cmax of the listed items.
procedureDetails: Single- and multiple-dose plasma pharmacokinetics of GA and PCA after oral RLQ in healthy subjects
Type: in vivo, human
protocolConditions: human, plasma, oral; single dose RLQ 8 g, female subjects n = 6; read-out: Cmax in women
valueType: Cmax (ng/mL)

[[record]]
compound = "O=C(O)c1ccc(O)c(O)c1 [PCA, protocatechuic acid]"
u = "ng/mL"
datavalue = 7.58

[[record]]
compound = "O=C(O)c1cc(O)c(O)c(O)c1 [GA, gallic acid]"
u = "ng/mL"
datavalue = 176

